PROTOCOL: 2-week rat toxicology and toxicokinetic study
Type: in vivo
MEASUREMENT_CONDITIONS: male, Crl:CD (SD)IGS BR, rat, in vivo, po, 20 mg/kg/day, males, 20 mg/kg/day, Day 13
REPORTED_PROPERTY: Tmax (h)

SMILES_CODE	REPORTED_PROPERTY	VALUE_REPORTED
Clc1ccc([C@]23CNC[C@H]2C3)cc1Cl	Tmax	2

---

PROTOCOL: Rabbit developmental toxicity study with toxicokinetics
MEASUREMENT_CONDITIONS: female, New Zealand white, in vivo, po, pregnant rabbits, 3 mg/kg/day, GD 20, read-out: AUC0-24
REPORTED_PROPERTY: AUC(0-t) (ng·h/mL)

SMILES_CODE	MEASURE_UNIT	VALUE_REPORTED
Clc1ccc([C@]23CNC[C@H]2C3)cc1Cl	ng·h/mL	1320

---

PROTOCOL: 13-week dog toxicity and toxicokinetic study
Format: in vivo
MEASUREMENT_CONDITIONS: male, beagle, dog, in vivo, po, 6 mg/kg/day, males, 6 mg/kg/day, Day 0

SMILES_CODE	MEASURE_UNIT	Cmax
Clc1ccc([C@]23CNC[C@H]2C3)cc1Cl	ng/mL	4640

---

PROTOCOL: 13-week rat toxicity and toxicokinetic study
Assay type: in vivo
MEASUREMENT_CONDITIONS: male, Crl:CD(SD)IGS BR, rat, in vivo, po, 25 mg/kg/day, males, 25 mg/kg/day, Day 87
REPORTED_PROPERTY: Cmax

SMILES_CODE	VALUE_REPORTED
Clc1ccc([C@]23CNC[C@H]2C3)cc1Cl	2490 ng/mL

---

PROTOCOL: 13-week rat toxicity and toxicokinetic study
Assay type: in vivo
MEASUREMENT_CONDITIONS: female, Crl:CD (SD)IGS BR, rat, in vivo, po, 10 mg/kg/day, females, 10 mg/kg/day, Day 0; read-out: AUC0-24
REPORTED_PROPERTY: AUC(0-t) (ng·h/mL)

COMPOUND	REPORTED_PROPERTY	MEASURE_UNIT	VALUE_REPORTED
Clc1ccc([C@]23CNC[C@H]2C3)cc1Cl [amitifadine]	AUC(0-t)	ng·h/mL	10900

---

PROTOCOL: 13-week dog toxicity and toxicokinetic study
Format: in vivo
MEASUREMENT_CONDITIONS: female, beagle, dog, in vivo, po, 2 mg/kg/day, females, 2 mg/kg/day, Day 0

SMILES_CODE	Cmax [µg/mL]
Clc1ccc([C@]23CNC[C@H]2C3)cc1Cl	0.635

---

PROTOCOL: 13-week mouse toxicity and toxicokinetic study
MEASUREMENT_CONDITIONS: both sexes, Crl:CD-1(ICR) BR, in vivo, oral, 13 weeks

SMILES_CODE	NOAEL at 13 weeks [mg/kg/day]
Clc1ccc([C@]23CNC[C@H]2C3)cc1Cl	30

---

PROTOCOL: Single-dose (25 mg) food effect crossover study in 24 men (DOV 947-003)
Assay type: in vivo, human
MEASUREMENT_CONDITIONS: male, human, in vivo, po, single oral dose 25 mg, Fasted, 24 healthy male subjects

COMPOUND	AUC(0-inf)
Clc1ccc([C@]23CNC[C@H]2C3)cc1Cl [amitifadine]	1290 ng·h/mL
